tgt: T1, β16β17 (erythrocyte β-spectrin residues 1898–2083), wild type (human, UniProt P11277 1898-2083)
T1 construct: erythrocyte β-spectrin, human, residues 1898-2083 (β16 plus the incomplete 17th domain); synthetic gene (GenScript) in a modified pRSETA plasmid; source: E. coli C41(DE3), purified (Ni2+ agarose, thrombin cleavage, gel filtration)
T1 sequence (looked up): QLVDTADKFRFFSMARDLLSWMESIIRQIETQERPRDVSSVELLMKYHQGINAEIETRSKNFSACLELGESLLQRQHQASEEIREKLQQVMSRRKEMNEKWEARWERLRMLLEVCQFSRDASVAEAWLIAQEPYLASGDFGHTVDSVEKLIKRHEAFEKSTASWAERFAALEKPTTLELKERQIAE
assay: ITC; β16β17 at 25–50 μM in the cell titrated with 15–20 injections to 2–2.5 eq of α0α1; one-site binding model; PBS (50 mM sodium phosphate, 150 mM NaCl, pH 7.04), 25 °C; mutants only against the wild-type partner
runConditions: both partners purified
metric: Ka
Provide the measurement as a number trailed by its unit.

Problem: What measured Ka goes with α0α1 Q88A (domain or fragment, human, UniProt P02549 2-163, looked up, mutant of m1; also called Q29A; source: E. coli C41(DE3), purified (Ni2+ agarose, thrombin cleavage, gel filtration)) EQFPKETVVESSGPKVLETAEEIQERRAEVLTRYQSFKERVAERGQKLEDSYHLQVFKRDADDLGKWIMEKVNILTDKSYEDPTNIQGKYQKHQSLEAEVQTKSRLMSELEKTREERFTMGHSAHEETKAHIEELRHLWDLLLELTLEKGDQLLRALKFQQY ?
Solution: 1e+06 M⁻¹

Problem: What measured Ka goes with α0α1 L91A (domain or fragment, human, UniProt P02549 2-163, looked up, mutant of m1; also called L32A; source: E. coli C41(DE3), purified (Ni2+ agarose, thrombin cleavage, gel filtration)) EQFPKETVVESSGPKVLETAEEIQERRQEVATRYQSFKERVAERGQKLEDSYHLQVFKRDADDLGKWIMEKVNILTDKSYEDPTNIQGKYQKHQSLEAEVQTKSRLMSELEKTREERFTMGHSAHEETKAHIEELRHLWDLLLELTLEKGDQLLRALKFQQY ?
Solution: 1.3e+06 M⁻¹

Problem: What measured Ka goes with α0α1 F97A (domain or fragment, human, UniProt P02549 2-163, looked up, mutant of m1; also called F38A; source: E. coli C41(DE3), purified (Ni2+ agarose, thrombin cleavage, gel filtration)) EQFPKETVVESSGPKVLETAEEIQERRQEVLTRYQSAKERVAERGQKLEDSYHLQVFKRDADDLGKWIMEKVNILTDKSYEDPTNIQGKYQKHQSLEAEVQTKSRLMSELEKTREERFTMGHSAHEETKAHIEELRHLWDLLLELTLEKGDQLLRALKFQQY ?
Solution: 58000 M⁻¹
